Consider compounds characterized by their Ki with Sodium-dependent serotonin transporter (Homo sapiens).
Sequence (P31645 whole entry): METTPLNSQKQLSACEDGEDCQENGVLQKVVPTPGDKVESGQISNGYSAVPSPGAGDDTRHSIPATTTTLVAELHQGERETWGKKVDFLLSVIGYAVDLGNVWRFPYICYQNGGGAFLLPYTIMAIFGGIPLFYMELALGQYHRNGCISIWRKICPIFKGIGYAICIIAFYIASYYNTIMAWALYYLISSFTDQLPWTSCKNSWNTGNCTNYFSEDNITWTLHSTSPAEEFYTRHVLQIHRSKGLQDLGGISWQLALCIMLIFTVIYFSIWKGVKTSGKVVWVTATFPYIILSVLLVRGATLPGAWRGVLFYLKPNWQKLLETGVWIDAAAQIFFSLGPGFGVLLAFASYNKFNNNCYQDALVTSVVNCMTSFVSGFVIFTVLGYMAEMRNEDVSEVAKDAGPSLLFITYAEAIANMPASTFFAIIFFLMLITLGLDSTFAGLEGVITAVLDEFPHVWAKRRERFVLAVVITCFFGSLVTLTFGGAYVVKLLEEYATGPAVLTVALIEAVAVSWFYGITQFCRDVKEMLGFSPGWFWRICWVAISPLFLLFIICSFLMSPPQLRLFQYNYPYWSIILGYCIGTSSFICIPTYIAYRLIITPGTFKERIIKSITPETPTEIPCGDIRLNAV
observable: Ki (nM)

compound="CN(C)Cc1ccccc1Sc1ccc(C#N)cc1N [DASB]" observable=Ki result=1.1
compound=COc1ccc(Sc2ccccc2CN(C)C)c(N)c1 observable=Ki result=1.89
compound=CN(C)Cc1ccccc1Sc1ccc(Cl)cc1N observable=Ki result=0.27

====

Species: Rattus norvegicus
Assay: Biodistribution of radioactivity in rat striatum upon Tail-Vein injection of [11C]-labeled compound after 60 min
Format: ADME, organism-based
Conditions: in vivo, iv, 1 h
observable: ID/g (%)

smiles_input=CN(C)Cc1ccccc1Sc1ccc(C#N)cc1N measurement_unit=% result=0.35
smiles_input=CN(C)Cc1ccccc1Sc1ccc(C(F)(F)F)cc1N measurement_unit=% result=0.72
smiles_input=COc1ccc(Sc2ccccc2CN(C)C)c(N)c1 measurement_unit=% result=0.38
smiles_input=CN(C)Cc1ccccc1Sc1ccc(Cl)cc1N measurement_unit=% result=0.79

====

Species on record: Rattus norvegicus
Assay: Biodistribution of radioactivity in rat cerebellum upon Tail-Vein injection of [11C]-labeled compound after 15 min
Format: ADME, organism-based
Settings: in vivo, iv, 0.25 h
observable: ID/g (%)

smiles_input=CN(C)Cc1ccccc1Sc1ccc(C(F)(F)F)cc1N result=0.7
smiles_input=CN(C)Cc1ccccc1Sc1ccc(Cl)cc1N result=0.75
smiles_input=COc1ccc(Sc2ccccc2CN(C)C)c(N)c1 result=0.52
smiles_input=CN(C)Cc1ccccc1Sc1ccc(C#N)cc1N result=0.54

====

Listing of entries alongside the reported ID/g.
Organism: Rattus norvegicus
Assay: Biodistribution of radioactivity in rat thalamus upon Tail-Vein injection of [11C]-labeled compound after 30 min
Format: ADME, organism-based
Details: in vivo, iv, 0.5 h
observable: ID/g

smiles_input=CN(C)Cc1ccccc1Sc1ccc(C#N)cc1N result=0.8%
smiles_input=COc1ccc(Sc2ccccc2CN(C)C)c(N)c1 result=0.83%
smiles_input=CN(C)Cc1ccccc1Sc1ccc(Cl)cc1N result=1.65%
smiles_input=CN(C)Cc1ccccc1Sc1ccc(C(F)(F)F)cc1N result=1.07%

====

Assay: Half-life of washout rate of radioactivity from the cerebellum.
Assay type: ADME, tissue-based
observable: T1/2 (min)

compound=CN(C)Cc1ccccc1Sc1ccc(C(F)(F)F)cc1N observable=T1/2 result=32.3
compound=COc1ccc(Sc2ccccc2CN(C)C)c(N)c1 observable=T1/2 result=18.8
compound="CN(C)Cc1ccccc1Sc1ccc(C#N)cc1N [DASB]" observable=T1/2 result=15.6
compound=CN(C)Cc1ccccc1Sc1ccc(Cl)cc1N observable=T1/2 result=25.4

====

Listing of entries alongside the reported ID/g.
Species on record: Rattus norvegicus
Test: Biodistribution of radioactivity in rat blood upon Tail-Vein injection of [11C]-labeled compound after 60 min
Assay type: ADME, organism-based
Conditions: in vivo, iv, 1 h
observable: ID/g (%)

compound="CN(C)Cc1ccccc1Sc1ccc(C#N)cc1N [DASB]" result=0.06
compound=COc1ccc(Sc2ccccc2CN(C)C)c(N)c1 result=0.07
compound=CN(C)Cc1ccccc1Sc1ccc(C(F)(F)F)cc1N result=0.12
compound=CN(C)Cc1ccccc1Sc1ccc(Cl)cc1N result=0.08

====

Consider compounds characterized by their pKi with Sodium-dependent dopamine transporter (Homo sapiens).
Sequence (Q01959 whole entry): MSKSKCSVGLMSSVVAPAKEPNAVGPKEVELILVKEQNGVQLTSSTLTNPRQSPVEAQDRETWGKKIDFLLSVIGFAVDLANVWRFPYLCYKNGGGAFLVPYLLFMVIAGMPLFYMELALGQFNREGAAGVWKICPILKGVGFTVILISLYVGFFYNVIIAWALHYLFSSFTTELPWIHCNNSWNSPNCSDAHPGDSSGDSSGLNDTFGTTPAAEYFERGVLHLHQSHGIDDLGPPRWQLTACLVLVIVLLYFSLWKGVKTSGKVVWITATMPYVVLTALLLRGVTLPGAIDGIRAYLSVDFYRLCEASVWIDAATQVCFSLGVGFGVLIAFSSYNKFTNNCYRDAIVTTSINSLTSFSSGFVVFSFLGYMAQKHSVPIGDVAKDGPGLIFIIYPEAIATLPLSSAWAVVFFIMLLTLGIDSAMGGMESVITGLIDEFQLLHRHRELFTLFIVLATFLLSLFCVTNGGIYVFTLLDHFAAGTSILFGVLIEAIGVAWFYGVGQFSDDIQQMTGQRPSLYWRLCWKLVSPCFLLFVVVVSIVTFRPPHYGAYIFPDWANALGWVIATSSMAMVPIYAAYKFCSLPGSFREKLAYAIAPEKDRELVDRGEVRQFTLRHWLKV
pKi: −log10 of the molar value.
observable: pKi

compound=COc1ccc(Sc2ccccc2CN(C)C)c(N)c1 result=5.58
compound="CN(C)Cc1ccccc1Sc1ccc(C#N)cc1N [DASB]" result=5.85
compound=CN(C)Cc1ccccc1Sc1ccc(C(F)(F)F)cc1N result=5.69
compound=CN(C)Cc1ccccc1Sc1ccc(Cl)cc1N result=6.94

====

Organism: Rattus norvegicus
Assay: Biodistribution of radioactivity in rat hippocampus upon Tail-Vein injection of [11C]-labeled compound after 30 min
Assay type: ADME, organism-based
Conditions: in vivo, iv, 0.5 h
observable: ID/g (%)

compound="CN(C)Cc1ccccc1Sc1ccc(C#N)cc1N [DASB]" observable=ID/g measurement_unit=% result=0.72
compound=CN(C)Cc1ccccc1Sc1ccc(C(F)(F)F)cc1N observable=ID/g measurement_unit=% result=0.88
compound=COc1ccc(Sc2ccccc2CN(C)C)c(N)c1 observable=ID/g measurement_unit=% result=0.74
compound=CN(C)Cc1ccccc1Sc1ccc(Cl)cc1N observable=ID/g measurement_unit=% result=1.04

====

Consider compounds characterized by their Ki with Sodium-dependent noradrenaline transporter (Homo sapiens, UniProt P23975).
Sequence (P23975 whole entry): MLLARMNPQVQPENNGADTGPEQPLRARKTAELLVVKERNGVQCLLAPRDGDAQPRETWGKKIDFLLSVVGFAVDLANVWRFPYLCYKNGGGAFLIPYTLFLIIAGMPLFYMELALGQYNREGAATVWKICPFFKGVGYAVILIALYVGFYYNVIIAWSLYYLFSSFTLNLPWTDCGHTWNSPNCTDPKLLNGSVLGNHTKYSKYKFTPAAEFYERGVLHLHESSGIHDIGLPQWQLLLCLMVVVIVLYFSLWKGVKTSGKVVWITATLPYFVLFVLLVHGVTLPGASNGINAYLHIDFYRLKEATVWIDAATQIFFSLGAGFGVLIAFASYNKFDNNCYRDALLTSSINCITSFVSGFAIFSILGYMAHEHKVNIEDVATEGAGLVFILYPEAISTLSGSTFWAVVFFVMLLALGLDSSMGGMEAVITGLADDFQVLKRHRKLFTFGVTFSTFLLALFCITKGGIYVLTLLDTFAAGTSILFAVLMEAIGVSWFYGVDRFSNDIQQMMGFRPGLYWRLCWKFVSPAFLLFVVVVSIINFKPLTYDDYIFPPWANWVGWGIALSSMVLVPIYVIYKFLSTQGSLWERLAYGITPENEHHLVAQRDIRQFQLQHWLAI
observable: Ki (µM)

smiles_input=CN(C)Cc1ccccc1Sc1ccc(Cl)cc1N observable=Ki measurement_unit=µM result=0.23
smiles_input=COc1ccc(Sc2ccccc2CN(C)C)c(N)c1 observable=Ki measurement_unit=µM result=1.99
smiles_input=CN(C)Cc1ccccc1Sc1ccc(C(F)(F)F)cc1N observable=Ki measurement_unit=µM result=1.2

====

Listing of entries alongside the reported ID/g.
Species: Rattus norvegicus
Assay: Biodistribution of radioactivity in rat cortex upon Tail-Vein injection of [11C]-labeled compound after 60 min
Type: ADME, organism-based
Settings: in vivo, iv, 1 h
observable: ID/g (%)

smiles_input=CN(C)Cc1ccccc1Sc1ccc(Cl)cc1N observable=ID/g result=0.73
smiles_input=CN(C)Cc1ccccc1Sc1ccc(C#N)cc1N observable=ID/g result=0.32
smiles_input=CN(C)Cc1ccccc1Sc1ccc(C(F)(F)F)cc1N observable=ID/g result=0.69
smiles_input=COc1ccc(Sc2ccccc2CN(C)C)c(N)c1 observable=ID/g result=0.36

====

Organism: Rattus norvegicus
Assay: Biodistribution of radioactivity in rat cerebellum upon Tail-Vein injection of [11C]-labeled compound after 30 min
Type: ADME, organism-based
Conditions: in vivo, iv, 0.5 h
Listing of entries alongside the reported ID/g.
observable: ID/g (%)

smiles_input=CN(C)Cc1ccccc1Sc1ccc(Cl)cc1N result=0.47
smiles_input=CN(C)Cc1ccccc1Sc1ccc(C(F)(F)F)cc1N result=0.47
smiles_input=COc1ccc(Sc2ccccc2CN(C)C)c(N)c1 result=0.27
smiles_input=CN(C)Cc1ccccc1Sc1ccc(C#N)cc1N result=0.27

====

Species on record: Rattus norvegicus
Assay: Biodistribution of radioactivity in rat hypothalamus upon Tail-Vein injection of [11C]-labeled compound after 15 min
Type: ADME, organism-based
Details: in vivo, iv, 0.25 h
Listing of entries alongside the reported ID/g.
observable: ID/g (%)

compound=COc1ccc(Sc2ccccc2CN(C)C)c(N)c1 observable=ID/g result=1.31
compound=CN(C)Cc1ccccc1Sc1ccc(C(F)(F)F)cc1N observable=ID/g result=1.17
compound="CN(C)Cc1ccccc1Sc1ccc(C#N)cc1N [DASB]" observable=ID/g result=1.39
compound=CN(C)Cc1ccccc1Sc1ccc(Cl)cc1N observable=ID/g result=1.48

====

Listing of entries alongside the reported ID/g.
Organism: Rattus norvegicus
Experiment: Biodistribution of radioactivity in rat striatum upon Tail-Vein injection of [11C]-labeled compound after 15 min
Format: ADME, organism-based
Details: in vivo, iv, 0.25 h
observable: ID/g (%)

compound="CN(C)Cc1ccccc1Sc1ccc(C#N)cc1N [DASB]" result=1.24
compound=CN(C)Cc1ccccc1Sc1ccc(C(F)(F)F)cc1N result=1.02
compound=CN(C)Cc1ccccc1Sc1ccc(Cl)cc1N result=1.34
compound=COc1ccc(Sc2ccccc2CN(C)C)c(N)c1 result=1.07

====

Organism: Rattus norvegicus
Assay: Biodistribution of radioactivity in rat hypothalamus upon Tail-Vein injection of [11C]-labeled compound after 30 min
Assay type: ADME, organism-based
Conditions: in vivo, iv, 0.5 h
observable: ID/g (%)

smiles_input=CN(C)Cc1ccccc1Sc1ccc(C#N)cc1N result=1.02
smiles_input=CN(C)Cc1ccccc1Sc1ccc(Cl)cc1N result=1.47
smiles_input=CN(C)Cc1ccccc1Sc1ccc(C(F)(F)F)cc1N result=1.23
smiles_input=COc1ccc(Sc2ccccc2CN(C)C)c(N)c1 result=1.08

====

Species: Rattus norvegicus
Assay: Biodistribution of radioactivity in rat hippocampus upon Tail-Vein injection of [11C]-labeled compound after 15 min
Format: ADME, organism-based
Details: in vivo, iv, 0.25 h
observable: ID/g

smiles_input=COc1ccc(Sc2ccccc2CN(C)C)c(N)c1 result=0.98%
smiles_input=CN(C)Cc1ccccc1Sc1ccc(C(F)(F)F)cc1N result=0.91%
smiles_input=CN(C)Cc1ccccc1Sc1ccc(C#N)cc1N result=1.06%
smiles_input=CN(C)Cc1ccccc1Sc1ccc(Cl)cc1N result=1.12%

====

Organism: Rattus norvegicus
Experiment: Biodistribution of radioactivity in rat cortex upon Tail-Vein injection of [11C]-labeled compound after 15 min
Type: ADME, organism-based
Conditions: in vivo, iv, 0.25 h
observable: ID/g (%)

compound=COc1ccc(Sc2ccccc2CN(C)C)c(N)c1 observable=ID/g result=1.11
compound=CN(C)Cc1ccccc1Sc1ccc(Cl)cc1N observable=ID/g result=1.33
compound=CN(C)Cc1ccccc1Sc1ccc(C(F)(F)F)cc1N observable=ID/g result=1.06
compound="CN(C)Cc1ccccc1Sc1ccc(C#N)cc1N [DASB]" observable=ID/g result=1.29
